- Substrate: CP C3-convertase (C4b2a) (UniProt P0C0L4)
- Sequence (P0C0L4 757-1446 limits assumed, chain 1 of 4): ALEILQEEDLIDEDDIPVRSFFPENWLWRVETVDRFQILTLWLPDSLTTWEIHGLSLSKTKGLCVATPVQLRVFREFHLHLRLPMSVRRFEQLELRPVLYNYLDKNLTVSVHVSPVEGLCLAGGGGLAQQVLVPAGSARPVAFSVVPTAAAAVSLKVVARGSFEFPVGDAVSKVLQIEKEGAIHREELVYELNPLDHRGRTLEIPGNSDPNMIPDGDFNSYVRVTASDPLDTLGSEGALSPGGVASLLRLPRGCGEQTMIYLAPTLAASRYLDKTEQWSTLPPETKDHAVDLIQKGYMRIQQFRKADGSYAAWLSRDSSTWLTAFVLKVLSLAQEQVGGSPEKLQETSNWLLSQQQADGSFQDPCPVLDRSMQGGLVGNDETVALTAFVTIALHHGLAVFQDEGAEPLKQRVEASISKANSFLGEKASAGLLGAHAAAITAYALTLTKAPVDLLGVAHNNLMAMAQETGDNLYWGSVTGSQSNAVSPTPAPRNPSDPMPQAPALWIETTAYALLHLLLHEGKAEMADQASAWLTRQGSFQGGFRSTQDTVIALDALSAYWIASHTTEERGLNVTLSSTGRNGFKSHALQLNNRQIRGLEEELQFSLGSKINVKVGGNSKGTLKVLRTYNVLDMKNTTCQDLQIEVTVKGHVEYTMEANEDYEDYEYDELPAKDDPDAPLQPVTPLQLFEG
- Sequence (P0C0L4 20-675 limits assumed, chain 2 of 4): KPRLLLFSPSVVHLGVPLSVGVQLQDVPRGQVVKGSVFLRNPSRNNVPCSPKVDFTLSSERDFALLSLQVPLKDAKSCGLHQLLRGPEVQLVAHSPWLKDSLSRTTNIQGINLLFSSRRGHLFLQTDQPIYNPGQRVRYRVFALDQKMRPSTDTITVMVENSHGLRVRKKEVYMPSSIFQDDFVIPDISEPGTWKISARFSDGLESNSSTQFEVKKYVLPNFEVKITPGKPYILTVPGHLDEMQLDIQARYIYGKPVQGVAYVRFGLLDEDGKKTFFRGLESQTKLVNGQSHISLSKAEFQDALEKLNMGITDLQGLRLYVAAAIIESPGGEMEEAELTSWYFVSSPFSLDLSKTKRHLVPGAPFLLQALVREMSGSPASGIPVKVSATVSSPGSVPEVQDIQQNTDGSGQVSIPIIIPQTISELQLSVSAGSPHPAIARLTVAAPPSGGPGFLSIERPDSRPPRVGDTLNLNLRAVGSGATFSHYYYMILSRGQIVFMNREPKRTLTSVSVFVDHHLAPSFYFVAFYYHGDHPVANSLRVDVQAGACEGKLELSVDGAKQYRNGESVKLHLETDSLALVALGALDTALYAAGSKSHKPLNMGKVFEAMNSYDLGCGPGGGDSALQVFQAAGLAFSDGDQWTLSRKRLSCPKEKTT
- Sequence (P0C0L4 1454-1744 limits assumed, chain 3 of 4): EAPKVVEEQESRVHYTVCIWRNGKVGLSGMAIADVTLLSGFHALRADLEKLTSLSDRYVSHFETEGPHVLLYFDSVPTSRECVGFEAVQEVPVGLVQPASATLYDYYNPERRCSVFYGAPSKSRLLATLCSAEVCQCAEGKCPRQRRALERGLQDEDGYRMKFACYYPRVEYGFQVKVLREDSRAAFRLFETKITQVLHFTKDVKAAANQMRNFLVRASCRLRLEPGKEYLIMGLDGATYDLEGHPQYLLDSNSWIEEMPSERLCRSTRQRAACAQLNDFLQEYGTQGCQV
- Sequence (P06681 244-752 limits assumed, chain 4 of 4, further chain): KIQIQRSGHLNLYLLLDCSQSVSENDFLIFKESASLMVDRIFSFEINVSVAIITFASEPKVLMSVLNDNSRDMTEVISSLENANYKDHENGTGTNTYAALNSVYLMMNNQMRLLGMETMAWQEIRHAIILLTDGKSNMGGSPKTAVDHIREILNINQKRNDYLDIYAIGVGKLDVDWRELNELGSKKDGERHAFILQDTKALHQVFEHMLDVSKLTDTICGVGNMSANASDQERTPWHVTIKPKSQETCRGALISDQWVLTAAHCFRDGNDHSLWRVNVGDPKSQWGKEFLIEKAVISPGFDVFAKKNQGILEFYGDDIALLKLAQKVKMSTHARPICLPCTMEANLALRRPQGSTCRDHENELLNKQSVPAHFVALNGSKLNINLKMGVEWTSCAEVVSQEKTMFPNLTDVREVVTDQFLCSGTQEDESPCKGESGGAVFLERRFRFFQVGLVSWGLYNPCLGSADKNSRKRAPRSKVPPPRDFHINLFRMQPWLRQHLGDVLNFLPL
- assay text: cell-based or functional assay
endpoint name: CP-DAA IC50

binder="D2D3M3M4 (L205K) (protein) CEVPTRLNSASLKQPYITQNYFPVGTVVEYECRPGYRREPSLSPKLTCLQNLKWSTAVEFCKKKSCPNPGEIRNGQIDVPGGILFGATISFSCNTGYKLFGSTSSFCKISGSSVQWSDPLPECREIYCTPPPKIKNGKHTFSEVEVFEYLDAVTYSCDPAPGPDPFSLIGESTIYCGDNSVWSRAAPECKVVKCRFPVVENGKQISGFGKKFYYKATVMFECDKGFYLDGSDTIVCDSNSTWDPPVPKCLKVL" endpoint_name="CP-DAA IC50" endpoint_result="9.2 µM"
binder="D2D3M3M4 (Multi-1) (protein) CEVPTRLNSASLKQPYITQNYFPVGTVVEYECRPGYRREPSLSPKLTCLQNLKWSTAVEFCKKKSCPNPGEIRNGQIDVPGGILFGATISFSCNTGYKLFGSTSSFCLISGSSVQWSDPLPICEKVLCTPPPKIKNGKHTFSEVEVFEYLDAVTYSCDPAPGPDPFSLIGESTIYCGDNSVWSRAAPECKVVKCRFPVVENGKQISGFGKKFYYKATVMFECDKGFYLDGSDTIVCDSNSTWDPPVPKCLKVL" endpoint_name="CP-DAA IC50" endpoint_result="22.6 µM"
binder="D2D3M3M4 (Multi-5) or DCP (decay-cofactor protein) (protein) CEVPTRLNSASLKQPYITQNYFPVGTVVEYECRPGYRREPSLSPKLTCLQNLKWSTAVEFCKKKSCPNPGEIRNGQIDVPGGILFGATISFSCNTGYKLIGSTSSFCLISGSSVQWSDKLPICEKVLCTPPPKIKNGKHTFSEVEVFEYLDAVTYSCDPAPGPDPFSLIGESTIYCGDNSVWSRAAPECKVVKCRFPVVENGKQISGFGKKFYYKATVMFECDKGFYLDGSDTIVCDSNSTWDPPVPKCLKVL" endpoint_name="CP-DAA IC50" endpoint_result="12.7 µM"
